Values were extracted from paper PMC9352680.

assay system: T1, PUF4 RNA-binding domain (Saccharomyces cerevisiae, UniProt P25339 537-888)
T1 sequence: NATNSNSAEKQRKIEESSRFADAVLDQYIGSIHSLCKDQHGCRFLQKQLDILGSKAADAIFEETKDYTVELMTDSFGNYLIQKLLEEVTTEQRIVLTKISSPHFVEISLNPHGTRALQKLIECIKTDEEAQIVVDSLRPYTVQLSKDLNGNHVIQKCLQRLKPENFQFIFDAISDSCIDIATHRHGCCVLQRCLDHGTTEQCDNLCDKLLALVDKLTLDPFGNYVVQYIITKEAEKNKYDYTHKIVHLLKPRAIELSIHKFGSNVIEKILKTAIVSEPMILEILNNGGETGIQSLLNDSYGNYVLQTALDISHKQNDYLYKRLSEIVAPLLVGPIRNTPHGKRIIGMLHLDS
protocol text: Mg; RNA-MaP; 20 mM Na-HEPES pH 7.4, 30 mM KOAc, 0.75 mM MgCl2, 0.1% Tween-20, 5% glycerol, 0.1 mg/mL BSA, 2 mM DTT; 25 C; 0.0125-409.6 nM protein
condition label: tags: N-His6-TEV cleaved; C-SNAP kept, Cy3B-labelled; label: tethered on chip by stalled RNA polymerase
Record form. Attribute: Kd. Fill in for each entry.

// UCUCUUCGAAUUAUUAUCUCUU (ssRNA) [Ib_S1_P5E.1_K5.1_C5.1_H5.1_[T1C]_[T3A]_A5.1_F5.1_T5.1] : Kd value = > 2300 nM

Reported Kd for Ic_S4_P4E.1_K4.1_C4.1_H4.1_A4.1_[T5G]_[A6C]_[T7G]_F4.1_[T8G]_[A9C]_T4.1 (ssRNA) RNA: UUUGACAACUGAUCGUUCUUUCUUGUAGCGGCUUCUUUCUCGAUCAGUUGUCUUU was > 2300 nM

Lab note: measured Kd of UCUCUUUGUAGCUCUCUCUU (ssRNA) [Ic_S1_P3E.1_K3.1_C3.1_H3.1_A3.1_[T5G]_[A6C]_F3.1_[A8C]_T3.1] was > 2300 nM
